Catalogue of molecules with associated IC50
# target.under.test: Avi-KRAS G12V (1-169) GppNHp/RAF1 RBD-3xFLAG (52-151) (Homo sapiens, UniProt P01116, G12V)
# Construct: Avi-KRAS G12V (1-169)
# Sequence (P01116 1-169 isoform P01116-2 G12V): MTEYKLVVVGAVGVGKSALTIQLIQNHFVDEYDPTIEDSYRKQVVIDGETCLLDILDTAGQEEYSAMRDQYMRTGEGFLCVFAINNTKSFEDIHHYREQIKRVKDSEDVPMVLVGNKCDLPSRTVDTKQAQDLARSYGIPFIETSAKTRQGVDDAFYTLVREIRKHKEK
# test.description: Raf1-KRAS G12V-GppNHP disruption HTRF assay (Biological Example 1)
# Format: binding
# settings: KRAS G12V, GppNHp-loaded; class symbols

The examples below pair each entry with its known result.
CCN(c1nc(OC[C@@]23CCCN2C[C@H](F)C3)nc2c(F)c(-c3ccc(F)c4sc(N)c(C#N)c34)c(C(F)(F)F)cc12)[C@H]1CCN(C(=O)N2CC3CC(C2)O3)C1 : < 100 nM
CCN(c1nc(OC[C@@]23CCCN2C[C@H](F)C3)nc2c(F)c(-c3ccc(F)c4sc(N)c(C#N)c34)c(C(F)(F)F)cc12)[C@H]1CCN(C(=O)N2C[C@H]3C[C@@H]2CO3)C1 (atropisomer, axis not shown) : < 100 nM

Let's switch to this molecule now.
query: Return reported IC50. Input molecule: CCN(c1nc(OC[C@@]23CCCN2C[C@H](F)C3)nc2c(F)c(-c3ccc(F)c4sc(N)c(C#N)c34)c(C(F)(F)F)cc12)[C@H]1CCN(C(=O)[C@H]2CC23CC3)C1 (atropisomer, axis not shown)
result: < 100 nM

* * *

Catalogue of compounds with associated IC50
# System: H1573 cells (KRAS G12A)
# test.description: Cell-based pERK HTRF assay in H1573 cells (Biological Example 5)
# settings: Homo sapiens, NCI-H1573

The examples below pair each entry with its known result.
CCN(c1nc(OC[C@@]23CCCN2C[C@H](F)C3)nc2c(F)c(-c3ccc(F)c4sc(N)c(C#N)c34)c(Cl)cc12)[C@@H]1CCN(C(=O)C2CC2)[C@@H]1C : ≤ 100 nM
CCN(c1nc(OC[C@@]23CCCN2C[C@H](F)C3)nc2c(F)c(-c3ccc(F)c4sc(N)c(C#N)c34)c(C(F)(F)F)cc12)[C@@H]1CCN(C(=O)C2CC2)[C@@H]1C (atropisomer, axis not shown) : ≤ 100 nM
CCN(c1nc(OC[C@@]23CCCN2C[C@H](F)C3)nc2c(F)c(-c3ccc(F)c4sc(N)c(C#N)c34)c(C(F)(F)F)cc12)[C@H]1CCN(C(=O)OC)C1 (atropisomer, axis not shown) : ≤ 100 nM
Cc1c(C(=O)N(C)C)nn2c1CN(c1nc(OC[C@@]34CCCN3C[C@H](F)C4)nc3c(F)c(-c4ccc(F)c5sc(N)c(C#N)c45)c(C(F)(F)F)cc13)CC2 : 100 to 1000 nM
N#Cc1c(N)sc2c(F)ccc(-c3c(C(F)(F)F)cc4c(N5CCC[C@@H](O)C5)nc(OC[C@@]56CCCN5C[C@H](F)C6)nc4c3F)c12 : ≤ 100 nM
CCC(=O)N1C[C@@H](N(CC)c2nc(OC[C@@]34CCCN3C[C@H](F)C4)nc3c(F)c(-c4ccc(F)c5sc(N)c(C#N)c45)c(C(F)(F)F)cc23)C[C@H]1C : 100 to 1000 nM
CC(=O)N1CC[C@@H](N(C)c2nc(OC[C@@]34CCCN3C[C@H](F)C4)nc3c(F)c(-c4ccc(F)c5sc(N)c(C#N)c45)c(C(F)(F)F)cc23)[C@H]1C (single isomer, unassigned) : ≤ 100 nM
C[C@@H]1[C@H](N(C)c2nc(OC[C@@]34CCCN3C[C@H](F)C4)nc3c(F)c(-c4ccc(F)c5sc(N)c(C#N)c45)c(C(F)(F)F)cc23)CCN1C(=O)C1CC1 : ≤ 100 nM
N#Cc1c(N)sc2c(F)ccc(-c3c(C(F)(F)F)cc4c(N5CCCOCC5)nc(OC[C@@]56CCCN5C[C@H](F)C6)nc4c3F)c12 : ≤ 100 nM

Let's switch to this compound now.
query: Name the recorded IC50 of CCN(c1nc(OC[C@@]23CCCN2C[C@H](F)C3)nc2c(F)c(-c3ccc(F)c4sc(N)c(C#N)c34)c(C(F)(F)F)cc12)[C@@H]1CCN(C(C)=O)C1 , assay system H1573 cells (KRAS G12A).
result: ≤ 100 nM

Data origin, for the record: patent US20260042764A1
